System: T. b. evansi AnTat 3/3
METHOD_SUMMARY: Anti-trypanosomal activity, resazurin (AB assay), bloodstream form
Assay type: cell-based, T. brucei evansi
CONDITION_DETAILS: Trypanosoma brucei, 72 h, axenic, 48 h + 24 h resazurin
ATTRIBUTE_MEASURED: pEC50
Please note pEC50 is a logarithmic value: minus log10 of concentration in mol/L. Answer with that number alone.

COc1cc(O)c2c(c1)C(=O)C1=C(C2=O)[C@H](O)[C@@H](O)[C@@H](C)O1 (relative stereo) | 5.38
COc1cc(O)c2c(c1)C(=O)C1=C(C2=O)[C@@H](O)[C@@H](OC(C)=O)[C@@H](C)O1 | 7.40
COc1cc(O)c2c(c1)C(=O)C1=C(C[C@@H](OC(C)=O)[C@@H](C)O1)C2=O | 6.15
COc1cc(O)c2c(c1)C(=O)C1=C(C2=O)[C@@H](OC(C)=O)[C@@H](O)[C@@H](C)O1 | 7.52

Prompt line: Name the recorded pEC50 of the item COc1cc(O)c2c(c1)C(=O)C1=C(C[C@@H](O)[C@@H](C)O1)C2=O in your answer.
Response line: 5.62
